These entries and their values trace back to PubChem BioAssay.

Assay: E. coli DRC41 culture turbidity changes, primary screen, E. coli filamentation inducer project, strain DRC41, OD650, 48 h (AID 1152);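 further: E. coli MC1000 strain DRC41 lacking acrAB efflux pump and sulA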
Details: E. coli DRC41 (acrAB sulA), higher = more signal, called active from +8 up or from −8 down
# z-score values compiled below
Please respond with just the number, no unit label.

O=C1C2C=CC(C(O)C3CCCCC3)N(Nc3ccc([N+](=O)[O-])cc3)C2C(=O)N1c1ccccc1 (stereo not given) | -1.13
C=CCC(OC(C)=O)[C@@H]1[C@@H](N(Cc2ccc(-c3cccc(C(F)(F)F)c3)o2)C(=O)c2ccc(-c3ccccc3)cc2)c2cc(OCCCO)ccc2N1C(=O)c1ccc(-c2ccccc2)cc1 (stereo not given in full) | -0.894
COC(=O)[C@@]1(Cc2ccccc2)[C@H]2c3cc(C(=O)N(C)C)n(CCSCCO)c3C[C@H]2CN1C(=O)c1ccccc1 | -1.8
COCCOC(=O)N1C(=O)[C@@]2(c3cc(C#Cc4ccc(OC)cc4)ccc31)[C@H](C(N)=O)[C@H]1C(=O)O[C@H](c3ccccc3)[C@H](c3ccccc3)N1[C@@H]2c1ccccc1OCCO | -0.289

Supply z-score value. Item: O=C1c2ccccc2[C@](Cc2ccccc2I)(C(=O)NC2CC2)[C@H](c2ccc(CO)cc2)N1Cc1ccccc1
-0.102

* * *

Assay: P. aeruginosa biofilm formation inhibitors, primary screen, strain PAO1, LB-PBS medium, absorbance 600 nm (AID 1176); further: test concentration not given here
Details: P. aeruginosa PAO1 growth/biofilm, A600, 12 h; higher = more signal
observed_property: z-score
Field format: numeric only.

CC(C)C[C@H]1NC(=O)[C@@]23C(=O)N[C@@H](Cc4ccccc4)C2[C@H](C)[C@@]2(C)O[C@H]2C3/C=C/C/C=C\CNC(=O)[C@H](Cc2ccccc2)NC1=O (stereo partly drawn) | 0.0117
C=CCN1C(=O)[C@]2(O[C@H](CCO)[C@@H]([Si](C)(C)c3ccc(OC)cc3)[C@@H]2C)c2cc(N3CCCCC3=O)ccc21 | -0.577

Name the recorded z-score of the compound listed here: COc1ccc(C(=O)Nc2ccc(CN3C(=O)[C@@]4(O[C@@H](CCO)[C@H]([Si](C)(C)c5ccc(OC)cc5)[C@H]4C)c4ccccc43)cc2)cc1
2.25

* * *

Target: Dihydroorotate dehydrogenase (quinone), mitochondrial (Plasmodium falciparum (isolate 3D7)) (UniProt Q08210)
Sequence (Q08210 whole entry, looked up): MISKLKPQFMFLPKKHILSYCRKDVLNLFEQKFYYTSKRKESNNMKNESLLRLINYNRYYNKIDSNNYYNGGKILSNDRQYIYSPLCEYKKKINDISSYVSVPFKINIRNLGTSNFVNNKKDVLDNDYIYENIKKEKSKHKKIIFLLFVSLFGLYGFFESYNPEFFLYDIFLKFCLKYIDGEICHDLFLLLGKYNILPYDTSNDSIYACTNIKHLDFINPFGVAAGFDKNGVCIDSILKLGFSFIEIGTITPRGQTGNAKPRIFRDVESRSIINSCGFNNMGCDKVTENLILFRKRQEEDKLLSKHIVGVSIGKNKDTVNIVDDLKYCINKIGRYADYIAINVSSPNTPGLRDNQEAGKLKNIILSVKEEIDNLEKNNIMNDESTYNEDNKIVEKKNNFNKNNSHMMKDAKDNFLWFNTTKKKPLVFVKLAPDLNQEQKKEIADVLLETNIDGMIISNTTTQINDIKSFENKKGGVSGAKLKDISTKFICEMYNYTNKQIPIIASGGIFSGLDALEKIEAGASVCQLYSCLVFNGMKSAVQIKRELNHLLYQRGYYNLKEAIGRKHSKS
Assay: PfDHODH enzyme inhibitors, primary screen, biochemical, C-terminal His tag, absorbance 600 nm (AID 1175);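 further: recombinant parasite enzyme with a five histidine tag at its C terminus; test concentration not given here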
Conditions: DCIP absorbance 600 nm, higher = more signal, called active from +8 up or from −8 down
As shown below, each of these compounds has a reported composite z-score value.
Lab note: record just the number, no unit beside it.

COC(=O)[C@@]1(Cc2ccc(F)cc2)[C@H]2c3cc(C(=O)N4CCCC4)n(Cc4cc(C)n(C)n4)c3C[C@H]2CN1C(=O)c1ccccc1 | -0.468

Provide measured composite z-score value, entry: CC(C)C(=C=CC[C@@H](O)c1ccccc1OCCO)CCO
-5.28

* * *

# composite z-score per record follows
Test system: wheat germ agglutinin (Triticum aestivum), Alexa647-labelled
Experiment: wheat germ agglutinin binders on compound microarrays, profiling panel, artefact control for SMM control-protein annotation, biochemical, small-molecule microarray, 635/667 nm fluorescence (AID 1140);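 further: score merges 667 nm feature emission with signal to noise over triplicate slides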
Conditions: WGA-A647 binding, 635 nm fluorescence, higher = more signal
// return just the number, without any unit appended

Example compounds with recorded composite z-score:
CN1C(=O)C2C=CC(C(O)C3=C[C@H]4C[C@@H](C3)C4(C)C)N(Nc3ccccc3)C2C1=O (some centres undefined) | 0.782
C=CCNC(=O)[C@H]1[C@@H]2C(=O)O[C@@H](c3ccccc3)[C@@H](c3ccccc3)N2[C@@H](c2ccc(OCCO)cc2)[C@]12C(=O)N(C(=O)OCCOC)c1ccccc12 | 0.789
O=C1O[C@H](c2ccccc2)[C@H](c2ccccc2)N2[C@H]1[C@@H](C(=O)N1CCN(c3ncccn3)CC1)[C@]1(C(=O)Nc3ccc(C#CC4=CCCCC4)cc31)[C@H]2c1ccc(O)cc1 | 0.605

Quickly give me recorded composite z-score for COc1ccc(C(O)C2C=CC3C(=O)NC(=O)C3N2Nc2ccccn2)c2ccccc12 (centres undefined)
0.788
